This listing pairs substances with measured solubility change mitosis (log2).
- System: HeLa Kyoto
- PROCEDURE SUMMARY: solubility change mitosis vs G1/S (difference of NP-40 vs SDS log2 ratios) (log2 ratio difference); higher = more soluble in mitosis
PROPERTY: solubility change mitosis (log2)

SUBSTANCE	MEASUREMENT
MAVARLAAVAAWVPCRSWGWAAVPFGPHRGLSVLLARIPQRAPRWLPACRQKTSLSFLNRPDLPNLAYKKLKGKSPGIIFIPGYLSYMNGTKALAIEEFCKSLGHACIRFDYSGVGSSDGNSEESTLGKWRKDVLSIIDDLADGPQILVGSSLGGWLMLHAAIARPEKVVALIGVATAADTLVTKFNQLPVELKKEVEMKGVWSMPSKYSEEGVYNVQYSFIKEAEHHCLLHSPIPVNCPIRLLHGMKDDIVPWHTSMQVADRVLSTDVDVILRKHSDHRMREKADIQLLVYTIDDLIDKLSTIVN [ABHD10]	-0.147
NCKIPSD	-0.148
MEKTQETVQRILLEPYKYLLQLPGKQVRTKLSQAFNHWLKVPEDKLQIIIEVTEMLHNASLLIDDIEDNSKLRRGFPVAHSIYGIPSVINSANYVYFLGLEKVLTLDHPDAVKLFTRQLLELHQGQGLDIYWRDNYTCPTEEEYKAMVLQKTGGLFGLAVGLMQLFSDYKEDLKPLLNTLGLFFQIRDDYANLHSKEYSENKSFCEDLTEGKFSFPTIHAIWSRPESTQVQNILRQRTENIDIKKYCVHYLEDVGSFEYTRNTLKELEAKAYKQIDARGGNPELVALVKHLSKMFKEENE [GGPS1]	-0.0913

###

- System: HeLa Kyoto
- PROCEDURE SUMMARY: thermal stability score vs G1/S (z-score of summed log2 fold changes over temperatures); higher = more thermally stable than in G1/S
- ASSAY CONDITIONS: cell cycle stage: mitosis
PROPERTY: thermal stability score

SEQUENCE RECORD	PROPERTY	MEASUREMENT
MSLEDPFFVVRGEVQKAVNTARGLYQRWCELLQESAAVGREELDWTTNELRNGLRSIEWDLEDLEETIGIVEANPGKFKLPAGDLQERKVFVERMREAVQEMKDHMVSPTAVAFLERNNREILAGKPAAQKSPSDLLDASAVSATSRYIEEQQATQQLIMDEQDQQLEMVSGSIQVLKHMSGRVGEELDEQGIMLDAFAQEMDHTQSRMDGVLRKLAKVSHMTSDRRQWCAIAVLVGVLLLVLILLFSL [STX10]	thermal stability score	0.0715
MAAAWGSSLTAATQRAVTPWPRGRLLTASLGPQARREASSSSPEAGEGQIRLTDSCVQRLLEITEGSEFLRLQVEGGGCSGFQYKFSLDTVINPDDRVFEQGGARVVVDSDSLAFVKGAQVDFSQELIRSSFQVLNNPQAQQGCSCGSSFSIKL [ISCA2]	thermal stability score	-2.06
MVRPVRHKKPVNYSQFDHSDSDDDFVSATVPLNKKSRTAPKELKQDKPKPNLNNLRKEEIPVQEKTPKKRLPEGTFSIPASAVPCTKMALDDKLYQRDLEVALALSVKELPTVTTNVQNSQDKSIEKHGSSKIETMNKSPHISNCSVASDYLDLDKITVEDDVGGVQGKRKAASKAAAQQRKILLEGSDGDSANDTEPDFAPGEDSEDDSDFCESEDNDEDFSMRKSKVKEIKKKEVKVKSPVEKKEKKSKSKCNALVTSVDSAPAAVKSESQSLPKKVSLSSDTTRKPLEIRSPSAESKKPKWVPPAASGGSRSSSSPLVVVSVKSPNQSLRLGLSRLARVKPLHPNATST [RAD51AP1]	thermal stability score	7.25
MEMGRRIHLELRNRTPSDVKELVLDNSRSNEGKLEGLTDEFEELEFLSTINVGLTSIANLPKLNKLKKLELSDNRVSGGLEVLAEKCPNLTHLNLSGNKIKDLSTIEPLKKLENLKSLDLFNCEVTNLNDYRENVFKLLPQLTYLDGYDRDDKEAPDSDAEGYVEGLDDEEEDEDEEEYDEDAQVVEDEEDEDEEEEGEEEDVSGEEEEDEEGYNDGEVDDEEDEEELGEEERGQKRKREPEDEGEDDD [ANP32A]	thermal stability score	2.54
MSLTSSSSVRVEWIAAVTIAAGTAAIGYLAYKRFYVKDHRNKAMINLHIQKDNPKIVHAFDMEDLGDKAVYCRCWRSKKFPFCDGAHTKHNEETGDNVGPLIIKKKET [CISD1]	thermal stability score	-1.59
MSFVAYEELIKEGDTAILSLGHGAMVAVRVQRGAQTQTRHGVLRHSVDLIGRPFGSKVTCGRGGWVYVLHPTPELWTLNLPHRTQILYSTDIALITMMLELRPGSVVCESGTGSGSVSHAIIRTIAPTGHLHTVEFHQQRAEKAREEFQEHRVGRWVTVRTQDVCRSGFGVSHVADAVFLDIPSPWEAVGHAWDALKVEGGRFCSFSPCIEQVQRTCQALAARGFSELSTLEVLPQVYNVRTVSLPPPDLGTGTDGPAGSDTSPFRSGTPMKEAVGHTGYLTFATKTPG [TRMT61A]	thermal stability score	-0.546

###

- Tested on: HeLa Kyoto
- PROCEDURE SUMMARY: thermal stability score vs G1/S (z-score of summed log2 fold changes over temperatures); higher = more thermally stable than in G1/S
- ASSAY CONDITIONS: cell cycle stage: mitosis

SEQUENCE RECORD	thermal stability score
MAASALYACTKCTQRYPFEELSQGQQLCKECRIAHPIVKCTYCRSEFQQESKTNTICKKCAQNVKQFGTPKPCQYCNIIAAFIGTKCQRCTNSEKKYGPPQTCEQCKQQCAFDRKEEGRRKVDGKLLCWLCTLSYKRVLQKTKEQRKSLGSSHSNSSSSSLTEKDQHHPKHHHHHHHHHHRHSSSHHKISNLSPEEEQGLWKQSHKSSATIQNETPKKKPKLESKPSNGDSSSINQSADSGGTDNFVLISQLKEEVMSLKRLLQQRDQTILEKDKKLTELKADFQYQESNLRTKMNSMEKAHKETVEQLQAKNRELLKQVAALSKGKKFDKSGSILTSP [FAM76B]	0.107

###

- Tested on: HeLa Kyoto
- PROCEDURE SUMMARY: melting temperature (median over replicates), in situ; higher = more thermally stable
- ASSAY CONDITIONS: cell cycle stage: mitosis

SEQUENCE RECORD	melting temperature (°C)
MAGSEPRSGTNSPPPPFSDWGRLEAAILSGWKTFWQSVSKERVARTTSREEVDEAASTLTRLPIDVQLYILSFLSPHDLCQLGSTNHYWNETVRDPILWRYFLLRDLPSWSSVDWKSLPDLEILKKPISEVTDGAFFDYMAVYRMCCPYTRRASKSSRPMYGAVTSFLHSLIIQNEPRFAMFGPGLEELNTSLVLSLMSSEELCPTAGLPQRQIDGIGSGVNFQLNNQHKFNILILYSTTRKERDRAREEHTSAVNKMFSRHNEGDDQQGSRYSVIPQIQKVCEVVDGFIYVANAEAHKRHEWQDEFSHIMAMTDPAFGSSGRPLLVLSCISQGDVKRMPCFYLAHELHLNLLNHPWLVQDTEAETLTGFLNGIEWILEEVESKRAR [FBXO4]	52
MNHSERFVFIAEWYDPNASLLRRYELLFYPGDGSVEMHDVKNHRTFLKRTKYDNLHLEDLFIGNKVNVFSRQLVLIDYGDQYTARQLGSRKEKTLALIKPDAISKAGEIIEIINKAGFTITKLKMMMLSRKEALDFHVDHQSRPFFNELIQFITTGPIIAMEILRDDAICEWKRLLGPANSGVARTDASESIRALFGTDGIRNAAHGPDSFASAAREMELFFPSSGGCGPANTAKFTNCTCCIVKPHAVSEGLLGKILMAIRDAGFEISAMQMFNMDRVNVEEFYEVYKGVVTEYHDMVTEMYSGPCVAMEIQQNNATKTFREFCGPADPEIARHLRPGTLRAIFGKTKIQNAVHCTDLPEDGLLEVQYFFKILDN [NME7]	48.8

###

- Test system: HeLa Kyoto
- PROCEDURE SUMMARY: melting temperature (median over replicates), in situ; higher = more thermally stable
- ASSAY CONDITIONS: cell cycle stage: mitosis

SEQUENCE RECORD	TESTED ON	melting temperature, °C
MQPPPPGPLGDCLRDWEDLQQDFQNIQETHRLYRLKLEELTKLQNNCTSSITRQKKRLQELALALKKCKPSLPAEAEGAAQELENQMKERQGLFFDMEAYLPKKNGLYLSLVLGNVNVTLLSKQAKFAYKDEYEKFKLYLTIILILISFTCRFLLNSRVTDAAFNFLLVWYYCTLTIRESILINNGSRIKGWWVFHHYVSTFLSGVMLTWPDGLMYQKFRNQFLSFSMYQSFVQFLQYYYQSGCLYRLRALGERHTMDLTVEGFQSWMWRGLTFLLPFLFFGHFWQLFNALTLFNLAQDPQCKEWQVLMCGFPFLLLFLGNFFTTLRVVHHKFHSQRHGSKKD [TMEM120A]	HeLa Kyoto	53.4
